Experiment: chemical genetic growth profiling, strain panel (AID 1159580);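 further: tested at 20 µM; growth read once vehicle control cultures reached saturation at 30 °C; 1 = growth at the plate median or of vehicle wells; lower values mean less growth of the strain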
Conditions: S. cerevisiae deletion strains, growth OD, locus YLR357W, strain rsc2, hits give low values
The whole screen tested about 5,500 compounds, of which about 2,000 (36%) were called active. Another 18% or so got no clear call; they are omitted. This is one part of the list.
Field: normalized growth. Provide a value for each of the compounds that follow.
Answers are plain numbers.

COC(=O)C[C@H]1C2(C)CC34OC5(C)O[C@@]6([C@H](OC(C)=O)C(OC(C)=O)[C@]7(C)C(/C(=C(/O)C(C)C)C(=O)O[C@H]7c7ccoc7)[C@@]6(O5)[C@H](OC(C)=O)[C@@]3(O)C2OC(=O)C(C)C)[C@]14C (stereo partly drawn): 0.997
O=C(O)CCCc1ccccc1: 1
CCCCCCCCC(=O)NCc1ccc(O)c(OC)c1: 1.12

For each of the compounds below, note its normalized growth.
1. CCC(C)C(=O)O[C@@H]1C[C@@]2(C)[C@H](c3ccoc3)OC(=O)CC23OC2(C)OC34[C@H](OC(=O)C(C)C)[C@@]3(O)[C@@H](OC(=O)C5(C)OC5C)[C@@]5(C)C[C@]3(O)[C@@](C)([C@H]5CC(=O)OC)C14O2 (stereo partly drawn)
2. COc1cc(CNC(=O)CCCC/C=C/C(C)C)ccc1O
3. N[C@@H](Cc1ccc(N(CCCl)CCCl)cc1)C(=O)O
4. CCn1cc(C(=O)O)c(=O)c2cc(F)c(N3CCNC(C)C3)c(F)c21 (stereo not drawn)
5. COc1ccc2c(c1)OC/C(=C\c1ccc(OC)c(O)c1)C2=O
6. COC(=O)C[C@H]1C2(C)CC34OC5(C)O[C@@]6([C@H](OC)C(OC(=O)C(C)C)[C@]7(C)C(/C(=C(/OC)C(C)C)C(=O)O[C@H]7c7ccoc7)[C@@]6(O5)[C@H](OC)[C@@]3(OC)C2OC(C)=O)[C@]14C (stereo partly drawn)
7. CCCCC/C=C/CCC(=O)N[C@H]1[C@H](Oc2c3cc4cc2Oc2ccc(cc2Cl)[C@@H](O[C@@H]2O[C@H](CO)[C@@H](O)[C@H](O)[C@H]2NC(C)=O)[C@@H]2NC(=O)[C@H](NC(=O)[C@@H]4NC(=O)[C@H]4NC(=O)C(Cc5ccc(c(Cl)c5)O3)NC(=O)[C@H](N)c3ccc(O)c(c3)Oc3cc(O)cc4c3)c3ccc(O)c(c3)-c3c(OC4O[C@H](CO)[C@@H](O)[C@H](O)[C@@H]4O)cc(O)cc3[C@@H](C(=O)O)NC2=O)O[C@H](CO)[C@@H](O)[C@@H]1O (stereo partly drawn)
8. CN(C)CCCC1(c2ccc(F)cc2)OCc2cc(C#N)ccc21 (stereo not drawn)

Data returned:
1. 1.03
2. 1.03
3. 0.954
4. 0.919
5. 0.964
6. 1.01
7. 1
8. 0.952

For each of the compounds below, note its normalized growth.
1. O=C1CCC(N2C(=O)c3ccccc3C2=O)C(=O)N1 (stereo not drawn)
2. CC(=O)S[C@@H]1CC2=CC(=O)CC[C@]2(C)[C@H]2CC[C@@]3(C)[C@@H](CC[C@@]34CCC(=O)O4)C12 (stereo partly drawn)
3. COC(=O)/C=C/C(C)=C/C=C/C(C)=C/C=C/C=C(C)/C=C/C=C(C)/C=C/C(=O)O
4. C[C@]12CCC(=O)C=C1C=CC1C2CC[C@@]2(C)C1CC[C@@]2(O)CCC(=O)O (stereo partly drawn)
5. CCN1CCCC(OC(=O)C(c2ccccc2)c2ccccc2)C1 (stereo not drawn)
6. CCN(CC)C(=O)N1CCN(C)CC1

Data returned:
0.997
1.06
1.02
1.01
0.933
0.937

====

Test: chemical genetic growth profiling, strain panel (AID 1159580);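 further: tested at 20 µM; growth read once vehicle control cultures reached saturation at 30 °C; 1 = growth at the plate median or of vehicle wells; lower values mean less growth of the strain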
Details: S. cerevisiae deletion strains, growth OD, locus YJR066W, strain TOR1
Screen size: about 5,500 compounds; about 2,000 (36%) were called active. Another 18% or so got no clear call; they are omitted. Cut-off read from the data, not from the text of the source: active = normalized growth mostly below about 0.91 (no sharp cut-off); inconclusive = no clear call, values can overlap the other calls; inactive = mostly above about 0.92. The list shows a part of the results.
// allowed return values: Y for active, N for inactive

COc1cc(CNC(=O)CCCC/C=C/C(C)C)ccc1O: N
OCCc1ccccc1: N
CCCCCCCCC(=O)NCc1ccc(O)c(OC)c1: N
N[C@@H](Cc1ccc(N(CCCl)CCCl)cc1)C(=O)O: N
COc1ccc2c(c1)OC1(O)COc3cc(OC)c(OC)cc3C1=C2 (stereo not drawn): N
C=CCCCCCCCCCCCc1ccco1: N
COC(=O)c1cc(=O)c(O)c2c(O)c(O)ccc2c1: Y
CCCCNC(=O)NS(=O)(=O)c1ccc(C)cc1: N

Data request: Please state the recorded outcome for this compound: CN(C)CCCC1(c2ccc(F)cc2)OCc2cc(C#N)ccc21 (stereo not drawn)
Data returned: N

Data request: Please state the recorded outcome for this compound: OCC(O)CN1CCN(c2ccccc2)CC1 (stereo not drawn)
Data returned: N

Data request: Please state the recorded outcome for this compound: C[n+]1c2cc(N)ccc2cc2ccc(N)cc21
Data returned: N

Data request: Please state the recorded outcome for this compound: O=C(O)CCCc1ccccc1
Data returned: Y

Data request: Please state the recorded outcome for this compound: Cc1ccc(S(=O)(=O)NC(=O)NN2CCCCCC2)cc1
Data returned: N

====

Experiment: chemical genetic growth profiling, strain panel (AID 1159580);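 further: tested at 20 µM; growth read once vehicle control cultures reached saturation at 30 °C; 1 = growth at the plate median or of vehicle wells; lower values mean less growth of the strain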
Settings: S. cerevisiae deletion strains, growth OD, locus YEL061C, strain CIN8, hits give low values
Screen size: about 5,500 compounds; about 2,000 (36%) were called active. Another 18% or so got no clear call; they are omitted. Some of the results follow.
One threshold, 1, splits the recorded normalized growth values: lower ones are TRUE, equal or higher ones are FALSE.

Recorded results for 3 compounds are shown here.
O=C1C(Cl)=C(Cl)C(=O)C(Cl)=C1Cl: TRUE
CC(=O)S[C@@H]1CC2=CC(=O)CC[C@]2(C)[C@H]2CC[C@@]3(C)[C@@H](CC[C@@]34CCC(=O)O4)C12 (stereo not given in full): TRUE
O=C(c1c(F)cccc1F)N1CCN(C(=O)c2c(F)cccc2F)CC1: TRUE

Data request: Decide: normalized growth of O=C1c2ccccc2C(=O)C1(c1ccccc1)[N+](=O)[O-] strictly below 1?
Data returned: TRUE

Data request: Decide: normalized growth of CCCCCCCCCCCCN1CNC(=S)NC1 strictly below 1?
Data returned: TRUE

Data request: Decide: normalized growth of C[n+]1c2cc(N)ccc2cc2ccc(N)cc21 strictly below 1?
Data returned: TRUE

Data request: Decide: normalized growth of S=C1NCN(CCN2CCCC2)CN1 strictly below 1?
Data returned: FALSE

====

Assay: chemical genetic growth profiling, strain panel (AID 1159580);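 further: tested at 20 µM; growth read once vehicle control cultures reached saturation at 30 °C; 1 = growth at the plate median or of vehicle wells; lower values mean less growth of the strain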
Details: S. cerevisiae deletion strains, growth OD, locus YOR061W, strain CKA2, hits give low values
Screen size: about 5,500 compounds; about 2,000 (36%) were called active. Not shown: some 18% with an inconclusive outcome. This is one part of the list.
measure: normalized growth
Give bare numbers.

Example entries and their recorded answers appear below.
COc1ccc2c(c1)OC/C(=C\c1ccc(OC)c(O)c1)C2=O: 0.93
COC(=O)C[C@H]1C2(C)CC34OC5(C)O[C@@]6([C@H](OC)C(OC(=O)C(C)C)[C@]7(C)C(/C(=C(/OC)C(C)C)C(=O)O[C@H]7c7ccoc7)[C@@]6(O5)[C@H](OC)[C@@]3(OC)C2OC(C)=O)[C@]14C (stereo not given in full): 1.04
O=C(Nc1cccc(C(F)(F)F)c1)c1cncc(C#Cc2ccccc2)c1: 0.875
O=[N+]([O-])c1ccc(-c2noc(-c3ccno3)n2)o1: 0.0948
CCC(C)C(=O)O[C@@H]1C[C@@]2(C)[C@H](c3ccoc3)OC(=O)CC23OC2(C)O[C@]14[C@]1(C)[C@@H](CC(=O)OC)C5(C)CC1(O)[C@](O)(C5OC(=O)C1(C)OC1C)[C@@H](OC(C)=O)[C@]34O2 (stereo not given in full): 1

For each of the molecules below, note its normalized growth.
1. CNC(=O)O/N=C(\C)SC
2. C#CCN(C)Cc1ccccc1
3. COc1ccc(-c2coc3cc(O)ccc3c2=O)c(OC)c1
4. CC(=O)Oc1cc(OC(C)=O)c2c(c1)O[C@H](c1ccc(OC(C)=O)c(OC(C)=O)c1)[C@H](OC(C)=O)C2
5. NCCCS(=O)(=O)O
6. CN1CC(=O)N=C1N

Data returned:
1.01
1
1
1
0.965
1.01

For each of the molecules below, note its normalized growth.
1. N/C(Cn1ccc(C(F)(F)F)n1)=N/OS(=O)(=O)c1cccc(Cl)c1Cl
2. COc1ccc(-c2coc3cc(O)ccc3c2=O)cc1
3. CC(=O)c1ccc(Cl)c(NS(=O)(=O)c2cc(Cl)c(Cl)cc2Cl)c1
4. C/C=C(\C)C(=O)O[C@H]1C[C@@H](OC(C)=O)[C@@]2(C(=O)OC)CO[C@@H]3C2[C@]12CO[C@](O)(C(=O)OC)[C@H]2[C@](C)(C12O[C@@]1(C)[C@H]1C[C@@H]2OC2OC=C[C@@]21O)[C@@H]3O (stereo not given in full)
5. COC(=O)[C@@H]1OC(=O)C2OC23[C@@]1(C)CCC1[C@]2(C)C(C[C@H](O)[C@]13C)C(C)(C)[C@H](OC(C)=O)C[C@@H]2OC(C)=O (stereo not given in full)
6. COc1ccc(OC)c(C(O)CNC(=O)CN)c1 (stereo not given)
7. COc1ccc(CN(CCN(C)C)c2ccccn2)cc1

Data returned:
1.01
0.985
0.744
0.989
1.03
0.967
1

For each of the molecules below, note its normalized growth.
1. C=CCc1ccc(O)c(OC)c1
2. O=C(c1csc(-c2ccc(Cl)cc2)c1)N1CCCCC1

Data returned:
[0.948, 0.803]
